Listed here: items and their measured pIC50.
# TARGET_ENTITY: recombinant form of Glutaminase 1 (GAC) (Homo sapiens, UniProt O94925)
# ASSAY_NOTES: Recombinant Enzyme Assay - Time Dependence (60 min preincubation)
# Assay type: biochemical
# TEST_CONDITIONS: read-out: GAC Delta N2 IC50 60 min preinc
Hey, just a heads up that pIC50 is the negative log base 10 of the concentration in molar.

Please list pIC50 recorded for the molecule CC1(C)CCN(C(=O)Cc2cccc(CC(=O)Nc3nnc(CCCCc4ccc(NC(=O)Cc5ccccc5)nn4)s3)c2)C1 [Compound 481]
8.40

###

# TARGET_ENTITY: recombinant form of Glutaminase 1 (GAC) (Homo sapiens)
# Sequence (O94925 137-598 isoform O94925-3 limits assumed): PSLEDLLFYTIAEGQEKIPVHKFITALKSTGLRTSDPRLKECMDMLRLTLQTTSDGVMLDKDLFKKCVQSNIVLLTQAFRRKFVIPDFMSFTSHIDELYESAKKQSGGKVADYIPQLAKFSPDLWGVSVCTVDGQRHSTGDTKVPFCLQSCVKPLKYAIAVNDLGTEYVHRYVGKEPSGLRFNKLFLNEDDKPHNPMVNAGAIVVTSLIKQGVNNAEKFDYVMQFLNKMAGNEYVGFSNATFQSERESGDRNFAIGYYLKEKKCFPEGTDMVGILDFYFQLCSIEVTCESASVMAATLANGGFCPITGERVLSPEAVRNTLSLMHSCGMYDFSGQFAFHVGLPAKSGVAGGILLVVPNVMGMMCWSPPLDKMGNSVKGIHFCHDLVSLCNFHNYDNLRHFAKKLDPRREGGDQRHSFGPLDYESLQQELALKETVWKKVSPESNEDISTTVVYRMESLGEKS
# ASSAY_NOTES: Recombinant Enzyme Assay - Time Dependence (60 min preincubation)
# Type: biochemical
# TEST_CONDITIONS: read-out: GAC Delta N2 IC50 60 min preinc
READOUT: pIC50
Hey, just a heads up that pIC50 is the negative log base 10 of the concentration in molar.

Some solved cases for reference:
                                   molecule  readout  test_value
0  O=C(CN1CCOCC1)Nc1cccc(CC(=O)Nc2nnc(CCCCc3ccc(NC(=O)Cc4ccccc4)nn3)s2)c1 [Compound 440]    pIC50        8.10
1  CC(O)c1cccc(CC(=O)Nc2nnc(CCCCc3ccc(NC(=O)Cc4ccccc4)nn3)s2)c1 (centres unmarked) [Compound 593]    pIC50        8.30
2  CC(C)(C)OC(=O)NCc1cccc(CC(=O)Nc2nnc(CCCCc3ccc(N)nn3)s2)c1 [Compound 412]    pIC50        7.55

Would you please give the reported pIC50 of CC(C)CNC(=O)COc1cccc(CC(=O)Nc2ccc(CCCCc3nnc(NC(=O)Cc4ccccc4)s3)nn2)c1 [Compound 647] with recombinant form of Glutaminase 1 (GAC) (Homo sapiens)?
8.40

Would you please give the reported pIC50 of CS(=O)(=O)CCCOc1cccc(CC(=O)Nc2nnc(CCCCc3ccc(NC(=O)Cc4ccccc4)nn3)s2)c1 [Compound 583] with recombinant form of Glutaminase 1 (GAC) (Homo sapiens)?
8.30

###

# Tested on: Caco-2 cell monolayers
# ASSAY_NOTES: Caco-2 Permeability Assay
# Assay type: in vitro ADME
READOUT: Significant Efflux

In [3]: df
Out[3]:
                                   molecule  test_value
0  O=C(Cc1cccc(OC(F)(F)F)c1)Nc1ccc(CCCCc2nnc(NC(=O)Cc3cccc(F)c3)s2)nn1 [Compound 679]          No
